Below, IC50 values reported for UniProtKB P07949 across several publications.

Example molecules with recorded IC50:
                            smiles_notation       measured_on   recorded_value
0  Cc1cc(Nc2cc(C)[nH]n2)nc(N2CC(F)(C(=O)N[C@@H](C)c3ccc(-n4cc(F)cn4)nc3)C2)n1  UniProtKB P07949          < 10 nM
1  CC(C)(O)COc1cc(-c2ccc(N3C[C@H]4CN(C(=O)c5c(F)cccc5Cl)C[C@H]4C3)nc2)c2c(C#N)cnn2c1  UniProtKB P07949          ≤ 10 nM
2  CS(=O)(=O)Nc1ccc(F)c(C(=O)c2c[nH]c3ncc(-c4ccccc4)cc23)c1F  UniProtKB P07949       ≤ 10000 nM
3  O=C(c1cccc(O)c1)c1c[nH]c2ncc(-c3cccnc3)cc12  UniProtKB P07949       ≤ 10000 nM
4  CCOc1cc(-c2ccc(NC(=O)Nc3ccc(OC4(C)COC4)c(C(F)(F)F)c3)c(OC(C)C)n2)c[nH]c1=O  UniProtKB P07949  500 to 10000 nM
5  Cn1ccc(-c2cc(-c3ccc(N4C[C@@H]5C[C@@](C)(NC(=O)c6ncccc6F)C[C@@H]5C4)nc3)c3c(C#N)cnn3c2)n1  UniProtKB P07949          ≤ 10 nM

Now consider a different molecule.
Fill in: UniProtKB P07949 IC50 for COC1(C(=O)N[C@@H](C)c2ccc(-n3cccn3)nc2)CCN(c2cc(C)cc(Nc3cc(C)[nH]n3)n2)CC1 = < 10 nM

* * *

Endpoint summary: pIC50, system: Proto-oncogene tyrosine-protein kinase receptor Ret (Homo sapiens), multiple sources combined.
pIC50: −log10 of the molar value.

In [3]: df
Out[3]:
                            smiles_notation                               measured_on  metric_name  recorded_value
0  CCOc1cc(-c2ccc(NC(=O)Nc3ccc(OC4(C)COC4)c(C(F)(F)F)c3)c(Cl)n2)c[nH]c1=O  Proto-oncogene tyrosine-protein kinase receptor Ret (Homo sapiens)        pIC50          > 7.00

So, Cc1ccccc1C(=O)c1c[nH]c2ncc(-c3ccsc3)cc12 ? Its pIC50 was ≥ 5.00

Recorded result, CNCc1cncc(-c2cnc3[nH]nc(-c4nc5cc(OC(F)(F)F)ccc5[nH]4)c3c2)c1 , pIC50: < 4.00

Recorded result, C#C[C@](C)(O)COc1cc(-c2ccc(N3CC4CC(C3)N4Cc3ccc(OC)nc3)nc2)c2c(C#N)cnn2c1 , pIC50: 9.42

* * *

This section presents IC50 values reported for Proto-oncogene tyrosine-protein kinase receptor Ret (Homo sapiens) in the literature.

Guide cases for IC50, answers given:
>>> df
                            smiles_notation  metric_name  recorded_value
0  O=C(Nc1ccc(Cc2c[nH]c3ncccc23)cc1)Nc1ccc(Cl)c(C(F)(F)F)c1         IC50      ≤ 10000 nM
1  CC(C)(O)COc1cc(-c2cnc(N3C4CC5CC3CC(NC=O)(C5)C4)cn2)c2c(C#N)cnn2c1         IC50     10 to 50 nM
2  Cc1ccc(Nc2ncc3c(n2)N2CCN=C2C(c2cc(NC(=O)c4cc(C(F)(F)F)ccn4)ccc2C)=C3)cn1         IC50        < 100 nM
3  COC1(C(=O)N[C@@H](C)c2ccc(-n3cc(F)cn3)nc2)CCN(c2nc(Nc3cc(C)[nH]n3)cc(C)c2C#N)CC1         IC50         < 10 nM
4  COC(=O)Nc1ccc(F)c(Cc2c[nH]c3ncc(-c4cccnc4)cc23)c1F         IC50      ≤ 10000 nM
5  COc1ccc(CN[C@]2(C)C[C@H]3CN(c4cnc(-c5cc(-c6cnn(C)c6)cn6ncc(C#N)c56)cn4)C[C@H]3C2)cn1         IC50         ≤ 10 nM

OCCOc1ccc2[nH]c(-c3n[nH]c4ncc(-c5cccnc5)cc34)nc2c1 has a reported IC50 of > 1000 nM

Measured IC50, Cc1ccccc1C(=O)c1c[nH]c2ncc(-c3cccc(N)c3)cc12 : ≤ 10000 nM

According to the records, this molecule CS(=O)(=O)Nc1ccc(F)c(C(=O)c2c[nH]c3ncccc23)c1 displays IC50 of ≤ 10000 nM

// IC50 lookup, molecule = O=C(c1cc(F)ccc1F)c1c[nH]c2ncc(-c3ccsc3)cc12 , result: ≤ 10000 nM

The reported value for CCN(CC)c1ccc(NC(=O)c2cccc3[nH]c(-c4n[nH]c5ncc(-c6cncc7ccccc67)cc45)nc23)c(C)c1 in terms of IC50 is > 10000 nM

Just so you know, measured IC50 for CCOCCOCc1cccc2[nH]c(-c3n[nH]c4ncc(-c5cncc6ccccc56)cc34)nc12 came out at > 1000 nM

// field: IC50; key: CN(C)C/C=C/C(=O)N(C)c1cccc(-n2nc(-c3ccc(Cl)cc3)c3c(N)ncnc32)c1 ; value = > 1000 nM

O=C(c1ccccc1)c1c[nH]c2ncc(-c3ccsc3)cc12 yielded IC50 of ≤ 10000 nM

Lab note: measured IC50 of COc1ccc(C(=O)N[C@]2(C)C[C@H]3CN(c4cnc(-c5cc(-c6cnn(C)c6)cn6ncc(C#N)c56)cn4)C[C@H]3C2)cn1 was ≤ 10 nM

* * *

Record: compiled IC50 on Proto-oncogene tyrosine-protein kinase receptor Ret (Homo sapiens, UniProt P07949) from multiple reports.

The cases that follow already have their IC50 on record.
>>> df
                            smiles_notation  recorded_value
0  CO[C@]1(C(=O)N[C@@H](C)c2ccc(-n3cc(F)cn3)nc2)C[C@H](c2nc(C)cc(Nc3cc(C)[nH]n3)n2)C1          < 1 nM
1  Cn1cc(-c2cc(-c3ccc(N4C[C@@H]5[C@@H](CNC(=O)c6ncccc6C(F)(F)F)[C@@H]5C4)nc3)c3c(C#N)cnn3c2)cn1         ≤ 10 nM

For record O=C(c1ccccc1)c1c[nH]c2nccc(-c3cc(F)cc(F)c3)c12 the listed IC50 is ≤ 10000 nM

// recorded IC50 for CCOc1cc(=O)[nH]cc1-c1ncc(NC(=O)Nc2ccc(CC3(C)COC3)c(C(F)(F)F)c2)c(C)n1 : < 100 nM

The recorded IC50 for Cc1cc(=O)[nH]cc1-c1ccc(NC(=O)Nc2ccc(OC3(C)COC3)c(C(F)(F)F)c2)c(F)c1 is < 100 nM

Data point: CCOc1cc(-c2cnc(N3C[C@@H]4C[C@@](C)(NC(=O)c5ncccc5Cl)C[C@@H]4C3)cn2)c2c(C#N)cnn2c1 ; IC50 = ≤ 10 nM

Short answer for Cc1cc(Nc2cc(C)[nH]n2)nc(N2CCC(O)(C(=O)NCc3ccc(-n4cccn4)nc3)CC2)c1 : IC50 was < 10 nM

* * *

Compiled from multiple publications: IC50 readings for Proto-oncogene tyrosine-protein kinase receptor Ret (Homo sapiens).

                            smiles_notation  metric_name  recorded_value
0     O=C(c1ccc(Cl)cc1)c1c[nH]c2ncc(Br)cc12         IC50      ≤ 10000 nM
1  Cn1ccc(-c2cc(-c3cnc(N4C[C@@H]5C[C@@](C)(NC(=O)c6c(F)cccc6Cl)C[C@@H]5C4)cn3)c3c(C#N)cnn3c2)n1         IC50         ≤ 10 nM
2  CCOc1cc(-c2ccc(NC(=O)Nc3ccc(C(C)(C)O)c(C(F)(F)F)c3)c(F)c2)c[nH]c1=O         IC50        < 100 nM

Entry COc1ccc(-c2ccnc3[nH]cc(C(=O)c4cccc(O)c4)c23)cn1 , IC50 reported as ≤ 10000 nM

// recorded IC50 for CCOc1cc(-c2ccc(NC(=O)Nc3ccc(OC4(C)COC4)c(C(F)(F)F)c3)c(F)c2F)c[nH]c1=O : < 100 nM

Entry Cc1ccccc1C(=O)c1c[nH]c2nccc(-c3cccc(S(C)(=O)=O)c3)c12 , IC50 reported as ≤ 10000 nM

Summary for this compound, COc1ccnc(C(=O)NC[C@@H]2[C@H]3CN(c4ccc(-c5cc(-c6cnn(C)c6)cn6ncc(C#N)c56)cn4)C[C@@H]23)c1 : IC50 is ≤ 10 nM

* * *

// compounds with pIC50 on Proto-oncogene tyrosine-protein kinase receptor Ret (Homo sapiens, UniProt P07949), multi-source literature
pIC50: −log10 of the molar value.

So, Cn1cc(-c2cc(-c3ccc(N4C[C@@H]5[C@H](C4)[C@H]5NC(=O)c4ncccc4Cl)nc3)c3c(C#N)cnn3c2)cn1 ? Its pIC50 was ≥ 8.00

Looking up CCNCc1cncc(-c2cnc3[nH]nc(-c4nc5cc(OC)ccc5[nH]4)c3c2)c1 , I see its pIC50 listed as ~6.00

Per the record, COc1ccc(-c2ccnc3[nH]cc(C(=O)c4cc(F)ccc4C)c23)cn1 has pIC50 of ≥ 5.00

// field: pIC50; key: CC(C)NC(=O)[C@H]1CC[C@@H](n2/c(=N/C(=O)c3cc(F)cc(F)c3)[nH]c3ccc(CN4CCC(C(C)(C)O)CC4)cc32)CC1 ; value = < 6.00

Lab book: pIC50 of CC1(C#N)CN(c2cc(-c3ccc(N4CCC(C)(NC(=O)c5ncccc5Cl)CC4)nc3)c3c(C#N)cnn3c2)C1 noted as 9.14

Measured pIC50, CCOc1cc(-c2ccc(NC(=O)Nc3ccc(OC4(C)COC4)c(C(F)(F)F)c3)nc2)c[nH]c1=O : > 7.00

Record Cn1cc(-c2cc(-c3cnc(N4C[C@@H]5C[C@@](C)(NC(=O)c6c(F)cccc6Cl)C[C@@H]5C4)cn3)c3c(C#N)cnn3c2)cn1 , field pIC50: ≥ 8.00
